Assay: Solubility test of crystal form B in different solvents
Assay type: physicochemical
Conditions: thermodynamic from solid; water, 24 h; read-out: Solubility (mg/mL) 24 h

[
  {
    "ITEM SMILES": "CCn1nnc(-c2ccc(OCCC(C)(C)CCN3CCN(c4ccnc(N)c4)S3(=O)=O)nc2)n1",
    "UNIT LABEL": "mg/mL",
    "solubility at 24 h": 346
  }
]

###

Assay: Solubility test of crystal form A in different solvents
Type: physicochemical
Settings: organic solvent or mixture, thermodynamic from solid; solvent: ethyl acetate

[
  {
    "ITEM SMILES": "CCn1nnc(-c2ccc(OCCC(C)(C)CCN3CCN(c4ccnc(N)c4)S3(=O)=O)nc2)n1",
    "solubility": "< 2130 µg/mL"
  }
]
